TARGET ENTITY: somatostatin receptor (Rattus norvegicus)
Construct: SRIF-14 to rat AR42J pancreas membranes; endogenous in cells
Sequence (P30680 whole entry): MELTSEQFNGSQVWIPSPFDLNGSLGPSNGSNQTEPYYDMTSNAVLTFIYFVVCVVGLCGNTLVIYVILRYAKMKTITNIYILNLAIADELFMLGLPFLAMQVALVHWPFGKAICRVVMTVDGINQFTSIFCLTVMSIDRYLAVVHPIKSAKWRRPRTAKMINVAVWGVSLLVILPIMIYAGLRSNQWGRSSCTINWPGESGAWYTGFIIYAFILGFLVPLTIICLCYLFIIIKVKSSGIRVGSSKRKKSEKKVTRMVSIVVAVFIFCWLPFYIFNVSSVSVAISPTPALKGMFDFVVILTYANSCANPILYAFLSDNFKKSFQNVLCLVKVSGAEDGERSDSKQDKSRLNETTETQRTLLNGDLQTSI
TEST NAME: Somatostatin binding assay: in vitro inhibition of binding of [125I-Tyr11]SRIF-14 to rat AR42J pancreas membranes
MEASUREMENT SETUP: inhibition of [125I-Tyr11]SRIF-14 binding, read-out: IC50, in vitro binding affinity
Numbered stars: 1 amine (or outer) side, 2 acyl side, 3 side chain; on linkers, the order of the positions; unused ones are H or OH. Bridge positions count the residues as written; N and C are the ends. Square brackets hold non-standard residues; d marks the D form. Peptide text beside a SMILES is read from it. * marks the point of attachment. 2Nal = N[C@@H](Cc1ccc2ccccc2c1)C(=O)O; X3 = O=C(CN(C(CO)(CO)CO)[*:1])[*:2]; Suc = O=C(CCC(=O)[*:2])[*:1]; NHC(CH2OH)3 = OCC(CO)(CO)N*
READOUT TYPE: pIC50
// scale note: pIC50 = -log10(conc_M); give the bare number

// solved cases for pIC50 follow
C[C@@H](O)[C@@H]1NC(=O)[C@H](CCCCN)NC(=O)[C@@H](Cc2c[nH]c3ccccc23)NC(=O)[C@H](Cc2ccc(O)cc2)NC(=O)[C@@H](NC(=O)[C@@H](Cc2ccccc2)NC(=O)CNC(CO)(CO)CO)CSSC[C@@H](C(=O)N[C@@H](Cc2ccc3ccccc3c2)C(N)=O)NC1=O [BIM-23179] (H-[X3][dF]CY[dW]KTC[2Nal]-NH2; disulfide 3-8)	9.92
CC(C)[C@@H]1NC(=O)[C@H](CCCCN)NC(=O)[C@@H](Cc2c[nH]c3ccccc23)NC(=O)[C@H](Cc2ccc(O)cc2)NC(=O)[C@@H](NC(=O)[C@@H](Cc2ccc3ccccc3c2)NC(=O)CCC(=O)NC(CO)(CO)CO)CSSC[C@@H](C(=O)N[C@H](C(N)=O)[C@@H](C)O)NC1=O	9.48

**Q:** For somatostatin receptor (Rattus norvegicus), provide pIC50 of C[C@@H](O)[C@@H]1NC(=O)[C@H](CCCCN)NC(=O)[C@@H](Cc2c[nH]c3ccccc23)NC(=O)[C@H](Cc2ccc(O)cc2)NC(=O)[C@@H](NC(=O)[C@@H](Cc2ccccc2)NC(=O)CCC(=O)NC(CO)(CO)CO)CSSC[C@@H](C(=O)N[C@@H](Cc2ccc3ccccc3c2)C(N)=O)NC1=O [BIM-23167] ({NHC(CH2OH)3-Suc}-[dF]CY[dW]KTC[2Nal]-NH2; disulfide 2-7) please.
**A:** 10.05
